Molecular target: GSK3alpha (Homo sapiens, UniProt P49840)
Sequence (P49840 whole entry, species assumed): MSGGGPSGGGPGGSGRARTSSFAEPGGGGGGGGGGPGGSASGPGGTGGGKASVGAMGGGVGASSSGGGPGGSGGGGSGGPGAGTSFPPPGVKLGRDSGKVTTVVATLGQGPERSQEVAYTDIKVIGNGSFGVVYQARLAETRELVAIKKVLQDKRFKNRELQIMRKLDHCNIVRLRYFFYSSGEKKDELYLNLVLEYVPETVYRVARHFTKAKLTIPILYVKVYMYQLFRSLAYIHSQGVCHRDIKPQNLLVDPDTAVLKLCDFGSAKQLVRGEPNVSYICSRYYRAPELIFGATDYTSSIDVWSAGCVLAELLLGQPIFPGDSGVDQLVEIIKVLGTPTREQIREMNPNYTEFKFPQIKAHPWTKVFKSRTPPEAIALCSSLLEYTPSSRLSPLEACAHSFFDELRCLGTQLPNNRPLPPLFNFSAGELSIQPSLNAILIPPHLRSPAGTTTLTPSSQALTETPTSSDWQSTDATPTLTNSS
Experiment: GSK3alpha assay (same as the GSK3beta assay, 0.25 ng/μl GSK3alpha)
Format: biochemical
Conditions: ranges of pIC50 (−log IC50 (M)), 1 μM ATP, read-out: GSK3a pIC50 (converted)
Reported property: IC50

Check out these entries, answers already filled in.
Compound	Target of assay	Value
COCCOc1cccc(-n2nnc3cnc(Nc4ccc(CN5CCN(C)CC5)cc4)nc32)c1 [Compound 131]	GSK3alpha (Homo sapiens, UniProt P49840)	1e-08 to 1e-07 M
Cn1ccnc1-c1cccc(Nc2ncc3nnn(-c4cccc(C(N)=O)c4)c3n2)c1 [Compound 7]	GSK3alpha (Homo sapiens, UniProt P49840)	< 1e-08 M
N#CCc1cccc(-n2nnc3cnc(Nc4ccc(CN5CCC(O)CC5)cc4)nc32)c1 [Compound 90]	GSK3alpha (Homo sapiens, UniProt P49840)	< 1e-08 M
COCc1cccc(-n2nnc3cnc(Nc4cccc(-c5ccnc(N)n5)c4)nc32)c1 [Compound 100]	GSK3alpha (Homo sapiens, UniProt P49840)	< 1e-08 M
CN1CCN(C(=O)c2ccc(Nc3ncc4nnn(-c5cccc(CC#N)c5)c4n3)cc2)CC1 [Compound 91]	GSK3alpha (Homo sapiens, UniProt P49840)	< 1e-08 M
COc1cccc(-n2nnc3cnc(Nc4cccc(-c5cnco5)c4)nc32)c1 [Compound 16]	GSK3alpha (Homo sapiens, UniProt P49840)	< 1e-08 M

Challenge: Any idea what IC50 was measured for CN1CCN(CCCOc2ccc(Nc3ncc4nnn(-c5cccc(CCO)c5)c4n3)cc2)CC1 [Compound 83] ?
Response given: < 1e-08 M

Challenge: Any idea what IC50 was measured for CN1CCN(CCOc2ccc(Nc3ncc4nnn(-c5cccc(CC#N)c5)c4n3)cc2)CC1 [Compound 93] ?
Response given: 1e-08 to 1e-07 M

---

Molecular target: GSK3β (Homo sapiens, UniProt P49841)
Sequence (P49841 whole entry, species assumed): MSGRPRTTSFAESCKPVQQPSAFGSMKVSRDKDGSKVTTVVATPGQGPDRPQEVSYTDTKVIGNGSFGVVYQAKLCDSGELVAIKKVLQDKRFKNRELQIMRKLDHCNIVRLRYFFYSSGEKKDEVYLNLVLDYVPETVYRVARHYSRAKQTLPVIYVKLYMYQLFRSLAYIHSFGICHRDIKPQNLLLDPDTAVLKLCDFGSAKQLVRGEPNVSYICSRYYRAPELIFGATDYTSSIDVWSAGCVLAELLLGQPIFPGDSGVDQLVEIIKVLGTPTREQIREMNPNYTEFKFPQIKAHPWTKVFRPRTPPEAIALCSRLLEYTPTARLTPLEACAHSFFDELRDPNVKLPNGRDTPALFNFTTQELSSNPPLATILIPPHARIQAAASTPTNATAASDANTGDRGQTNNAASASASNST
Test: GSK3beta assay (SPA, biotinylated phosphorylated CREB peptide, ATP-P33)
Assay type: biochemical
Conditions: ranges of pIC50 (−log IC50 (M)); 1 μM ATP, room temperature, one hour; read-out: GSK3b pIC50 (converted)
Listed here are molecules together with their documented IC50.

Line notation	IC50
O=S(=O)(NCCNc1ncccn1)c1cccc(Nc2ncc3nnn(-c4cccc(F)c4)c3n2)c1	1e-08 to 1e-07 M
NCc1cccc(-n2nnc3cnc(Nc4cccc(-c5cnco5)c4)nc32)c1	< 1e-08 M
Cc1nc(-c2cccc(Nc3ncc4nnn(-c5cccc(F)c5)c4n3)c2)cs1	< 1e-08 M

Then there is this molecule:
Challenge: Any idea what IC50 was measured for COCc1cccc(-n2nnc3cnc(Nc4cccc(-c5cnco5)c4)nc32)c1 ?
Response given: < 1e-08 M

---

Listed here are compounds together with their documented IC50.
Molecular target: GSK3β (Homo sapiens)
Experiment: GSK3beta assay (SPA, biotinylated phosphorylated CREB peptide, ATP-P33)
Type: biochemical
Details: ranges of pIC50 (−log IC50 (M)); 1 μM ATP, room temperature, one hour; read-out: GSK3b pIC50 (converted)

Check out these entries, answers already filled in.
Compound	Target of assay	IC50
Cn1nnnc1-c1cccc(Nc2ncc3nnn(-c4cccc(CCO)c4)c3n2)c1 [Compound 76]	GSK3β (Homo sapiens)	< 1e-08 M
CN1CCN(CCOc2ccc(Nc3ncc4nnn(-c5cccc(F)c5)c4n3)cc2)CC1 [Compound 140]	GSK3β (Homo sapiens)	1e-08 to 1e-07 M
CN1CCN(Cc2ccc(Nc3ncc4nnn(-c5cccc(CCO)c5)c4n3)cc2)CC1 [Compound 78]	GSK3β (Homo sapiens)	< 1e-08 M
COCCOc1cccc(-n2nnc3cnc(Nc4ccc(C(=O)NCCN5CCOCC5)cc4)nc32)c1 [Compound 134]	GSK3β (Homo sapiens)	1e-08 to 1e-07 M

Challenge: Any idea what IC50 was measured for COCCOc1cccc(-n2nnc3cnc(Nc4ccc(N5CCN(C)CC5)cc4)nc32)c1 [Compound 130] ?
Response given: 1e-08 to 1e-07 M

Challenge: Any idea what IC50 was measured for Cn1ccnc1-c1cccc(Nc2ncc3nnn(-c4cccc(C(N)=O)c4)c3n2)c1 [Compound 7] ?
Response given: 1e-08 to 1e-07 M

Challenge: Any idea what IC50 was measured for COc1cccc(-n2nnc3cnc(Nc4cccc(-c5cnco5)c4)nc32)c1 [Compound 16] ?
Response given: < 1e-08 M

Challenge: Any idea what IC50 was measured for COCC(=O)NCc1cccc(-n2nnc3cnc(Nc4cccc(-c5cnco5)c4)nc32)c1 [Compound 122] ?
Response given: < 1e-08 M

Challenge: Any idea what IC50 was measured for COCc1cccc(-n2nnc3cnc(Nc4ccc(OCCN5CCN(C)CC5)cc4)nc32)c1 [Compound 105] ?
Response given: 1e-08 to 1e-07 M

Challenge: Any idea what IC50 was measured for Fc1cccc(-n2nnc3cnc(Nc4ccc(OCCCN5CCCCC5)cc4)nc32)c1 [Compound 142] ?
Response given: 1e-08 to 1e-07 M

Challenge: Any idea what IC50 was measured for Cc1cccc(-n2nnc3cnc(Nc4cccc(-c5nccn5C)c4)nc32)c1 [Compound 14] ?
Response given: < 1e-08 M

---

Listed here are compounds together with their documented IC50.
Biological target: GSK3β (Homo sapiens, UniProt P49841)
Assay: GSK3beta assay (SPA, biotinylated phosphorylated CREB peptide, ATP-P33)
Type: biochemical
Settings: ranges of pIC50 (−log IC50 (M)); 1 μM ATP, room temperature, one hour; read-out: GSK3b pIC50 (converted)

Compound	Value
COCCOCc1cccc(-n2nnc3cnc(Nc4ccc(CN5CCC(O)CC5)cc4)nc32)c1	1e-08 to 1e-07 M
COCCOCc1cccc(-n2nnc3cnc(Nc4ccc(CN5CCN(C)CC5)cc4)nc32)c1	1e-08 to 1e-07 M
COCCOCc1cccc(-n2nnc3cnc(Nc4ccc(C(=O)N5CCN(C)CC5)cc4)nc32)c1	< 1e-08 M
Brc1cccc(-n2nnc3cnc(Nc4cccc(-c5ccn[nH]5)c4)nc32)c1	1e-08 to 1e-07 M
COc1cccc(-n2nnc3cnc(Nc4cccc(-c5nnn[nH]5)c4)nc32)c1	1e-08 to 1e-07 M
Nc1nccc(-c2cccc(Nc3ncc4nnn(-c5cccc(F)c5)c4n3)c2)n1	< 1e-08 M

Challenge: Any idea what IC50 was measured for COCCOCc1cccc(-n2nnc3cnc(Nc4ccc(N5CCN(C)CC5)cc4)nc32)c1 ?
Response given: < 1e-08 M

Challenge: Any idea what IC50 was measured for COCCOCc1cccc(-n2nnc3cnc(Nc4ccc(N5CCOCC5)cc4)nc32)c1 ?
Response given: < 1e-08 M

---

Target: UniProt:P49840
Experiment: GSK3alpha assay (same as the GSK3beta assay, 0.25 ng/μl GSK3alpha)
Type: biochemical
Settings: ranges of pIC50 (−log IC50 (M)), 1 μM ATP, read-out: GSK3a pIC50 (converted)
Reported property: IC50

Check out these entries, answers already filled in.
Line notation	IC50
c1ccc(-n2nnc3cnc(Nc4cccc(-c5cnco5)c4)nc32)cc1	< 1e-08 M
NS(=O)(=O)c1cccc(-n2nnc3cnc(Nc4cccc(-c5cnco5)c4)nc32)c1	< 1e-08 M
Cn1nnnc1-c1cccc(Nc2ncc3nnn(-c4cccc(F)c4)c3n2)c1	< 1e-08 M
Fc1cccc(-n2nnc3cnc(Nc4ccc(-n5cccn5)cc4)nc32)c1	> 1e-07 M
Cn1nnc(-c2ccc(Nc3ncc4nnn(-c5cccc(F)c5)c4n3)cc2)n1	1e-08 to 1e-07 M
O=S(=O)(NCCNc1ncccn1)c1cccc(Nc2ncc3nnn(-c4cccc(F)c4)c3n2)c1	1e-08 to 1e-07 M

Challenge: Any idea what IC50 was measured for N#CCc1cccc(-n2nnc3cnc(Nc4cccc(-c5cnco5)c4)nc32)c1 ?
Response given: < 1e-08 M

Challenge: Any idea what IC50 was measured for OCCc1cccc(-n2nnc3cnc(Nc4cccc(-c5nnn[nH]5)c4)nc32)c1 ?
Response given: 1e-08 to 1e-07 M

Challenge: Any idea what IC50 was measured for COCC(=O)NCc1cccc(-n2nnc3cnc(Nc4cccc(-c5cnco5)c4)nc32)c1 ?
Response given: < 1e-08 M

Challenge: Any idea what IC50 was measured for Cn1ccnc1-c1cccc(Nc2ncc3nnn(-c4cccc(F)c4)c3n2)c1 ?
Response given: < 1e-08 M

---

Listed here are molecules together with their documented IC50.
Target: GSK3alpha (Homo sapiens, UniProt P49840)
Assay: GSK3alpha assay (same as the GSK3beta assay, 0.25 ng/μl GSK3alpha)
Assay type: biochemical
Conditions: ranges of pIC50 (−log IC50 (M)), 1 μM ATP, read-out: GSK3a pIC50 (converted)

Line notation	Value
c1ccc(-n2nnc3cnc(Nc4ccc(N5CCOCC5)cc4)nc32)cc1	1e-08 to 1e-07 M
Fc1cccc(-n2nnc3cnc(Nc4cccc(-c5cnco5)c4)nc32)c1	< 1e-08 M
Cn1nnc(-c2cccc(Nc3ncc4nnn(-c5cccc(F)c5)c4n3)c2)n1	< 1e-08 M
Brc1cccc(-n2nnc3cnc(Nc4cccc(-c5ccn[nH]5)c4)nc32)c1	< 1e-08 M
CNc1nccc(-c2cccc(Nc3ncc4nnn(-c5cccc(F)c5)c4n3)c2)n1	< 1e-08 M

Challenge: Any idea what IC50 was measured for COCc1cccc(-n2nnc3cnc(Nc4ccc(CN5CCN(C)CC5)cc4)nc32)c1 ?
Response given: < 1e-08 M
